system: stromelysin-1 catalytic domain (MMP03) (Homo sapiens)
Construct: SCD (stromelysin-1 catalytic domain); made in house; host or cells: Escherichia coli
Sequence (P08254 100-272 limits assumed): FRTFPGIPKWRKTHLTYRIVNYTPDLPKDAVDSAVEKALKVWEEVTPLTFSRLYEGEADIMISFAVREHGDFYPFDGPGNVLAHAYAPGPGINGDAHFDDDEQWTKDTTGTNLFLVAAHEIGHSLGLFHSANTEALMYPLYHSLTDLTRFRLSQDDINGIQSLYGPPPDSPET
experiment-description: Thiopeptolide assay, stromelysin-1 catalytic domain (SCD, MMP03)
Assay type: biochemical
condition-description: Tables 2, 3, 5, 7; read-out: IC50 MMP 3CD
assay-readout: pIC50
One number for each entry, as −log10 of the molar value.

Each of the following entries comes with a recorded value; kindly state pIC50 for each.
1. O=C(COc1cccc2ccccc12)NCCCCC(NS(=O)(=O)c1ccc2oc3ccccc3c2c1)C(=O)O (stereo not shown) [Example A14]
2. CC(C)(C)c1ccc(OCC(=O)NCCCCC(NS(=O)(=O)c2ccc3oc4ccccc4c3c2)C(=O)O)cc1 (stereo not shown) [Example A10]
3. COc1ccccc1CNC(=O)CCC(NS(=O)(=O)c1ccc2oc3ccccc3c2c1)C(=O)O (stereo not shown) [Example F15]
4. CC(O)CNC(=O)CCC(NS(=O)(=O)c1ccc2oc3ccccc3c2c1)C(=O)O (stereo not shown) [Example F3]
5. O=C(COc1ccccc1)NCCCCC(NS(=O)(=O)c1ccc2oc3ccccc3c2c1)C(=O)O (stereo not shown) [Example A8]
6. O=C(CCCc1cccs1)NCCCCC(NS(=O)(=O)c1ccc2oc3ccccc3c2c1)C(=O)O (stereo not shown) [Example A35]
7. CCC(Oc1ccccc1)C(=O)NCCCCC(NS(=O)(=O)c1ccc2oc3ccccc3c2c1)C(=O)O (stereo not shown) [Example A6]

### Response
1. 5.28
2. 4.58
3. 5.74
4. 5.06
5. 5.60
6. 5.77
7. 5.41

Take each entry in turn and give its pIC50.
1. O=C(CCCc1ccccc1)NCCCCC(NS(=O)(=O)c1ccc2oc3ccccc3c2c1)C(=O)O (stereo not shown) [Example A26]
2. O=C(CCC(NS(=O)(=O)c1ccc2oc3ccccc3c2c1)C(=O)O)NCc1cccs1 (stereo not shown) [Example F7]
3. O=C(O)C(CCCCNS(=O)(=O)c1ccc(Br)cc1)NS(=O)(=O)c1ccc2oc3ccccc3c2c1 (stereo not shown) [Example D3]
4. O=C(O)C(CCCCNS(=O)(=O)c1cccc2ccccc12)NS(=O)(=O)c1ccc2oc3ccccc3c2c1 (stereo not shown) [Example D9]
5. COc1ccc(S(=O)(=O)NCCCCC(NS(=O)(=O)c2ccc3oc4ccccc4c3c2)C(=O)O)cc1 (stereo not shown) [Example D2]
6. O=C(CCCc1ccc([N+](=O)[O-])cc1)NCCCCC(NS(=O)(=O)c1ccc2oc3ccccc3c2c1)C(=O)O (stereo not shown) [Example A21]
7. O=C(O)C(CCCCNC(=S)NC(c1ccccc1)c1ccccc1)NS(=O)(=O)c1ccc2oc3ccccc3c2c1 (stereo not shown) [Example B4]
8. O=C(O)C(CCCCNS(=O)(=O)c1ccc2ccccc2c1)NS(=O)(=O)c1ccc2oc3ccccc3c2c1 (stereo not shown) [Example D8]

### Response
[5.38, 6.40, 5.07, 4.85, 5.34, 5.12, 5.09, 4.72]

### Prompt Tell me its pIC50 given O=C(O)C(CCCCNC(=S)Nc1cccnc1)NS(=O)(=O)c1ccc2oc3ccccc3c2c1 (stereo not shown) [Example B3] as the entry.
### Response 5.21
